Assay: Pharmacokinetic study in tumor-bearing nude mice (LC-MS/MS)
Assay type: in vivo
Conditions: nude, mouse, single oral dose 10 mg/kg, plasma
ENDPOINT NAME: AUC(0-t) (ng·h/mL)
Numbers only, in ng·h/mL.

Using the record for COc1cc2c(Oc3ccc(NC(=O)C4(C(=O)Nc5ccc(F)cc5)CC4)cc3F)ccnc2cc1OCCCN1CCOCC1 [Foretinib] , report its AUC(0-t).
6210

---

Experiment: Pharmacokinetic study in tumor-bearing nude mice (LC-MS/MS)
Type: in vivo
Details: nude, mouse, single oral dose 2 mg/kg, plasma
Method: Data processing was performed with Phoenix WinNonlin 8.1.0.3530 (Pharsight Corporation, Mountain View, CA, USA).
ENDPOINT NAME: Tmax (h)
Numbers only, in h.

Using the record for COc1cc2c(Oc3ccc(NC(=O)C4(C(=O)Nc5ccc(F)cc5)CC4)cc3F)ccnc2cc1OCCCN1CCOCC1 , report its Tmax.
4

---

Assay: Pharmacokinetic study in tumor-bearing nude mice (LC-MS/MS)
Format: in vivo
Conditions: nude, mouse, single oral dose 50 mg/kg, plasma
ENDPOINT NAME: Cmax (ng/mL)
Numbers only, in ng/mL.

Using the record for COc1cc2c(Oc3ccc(NC(=O)C4(C(=O)Nc5ccc(F)cc5)CC4)cc3F)ccnc2cc1OCCCN1CCOCC1 [Foretinib] , report its Cmax.
1430

---

Test: Pharmacokinetic study in tumor-bearing nude mice (LC-MS/MS)
Format: in vivo
Conditions: nude, mouse, single oral dose 50 mg/kg, plasma
ENDPOINT NAME: Tmax (min)
One number for each entry, in min.

Using the record for COc1cc2c(Oc3ccc(NC(=O)C4(C(=O)Nc5ccc(F)cc5)CC4)cc3F)ccnc2cc1OCCCN1CCOCC1 , report its Tmax.
30

---

Assay: Pharmacokinetic study in tumor-bearing nude mice (LC-MS/MS)
Format: in vivo
Details: nude, mouse, single oral dose 2 mg/kg, plasma
ENDPOINT NAME: AUC(0-t) (ng·h/mL)
Answers are plain numbers, in ng·h/mL.

Using the record for COc1cc2c(Oc3ccc(NC(=O)C4(C(=O)Nc5ccc(F)cc5)CC4)cc3F)ccnc2cc1OCCCN1CCOCC1 [Foretinib] , report its AUC(0-t).
366
